Test: Photochromic properties of cast polymer (2 mm thick) under xenon lamp irradiation for 120 seconds
Assay type: physicochemical
Conditions: single chromene compound 0.04% by weight in polymer, 20° C.; Table 5
value_type: Maximum absorption wavelength λmax (nm)
Numbers only, in nm.

A selection of reference data follows.
1. CC(C)c1cc2ccccc2c2c1C=CC(c1ccccc1)(c1ccc3ccccc3c1)O2 (stereo not drawn): 468
2. COc1ccc(C2(c3ccc(OC)cc3)C=Cc3c(C)cc4ccccc4c3O2)cc1: 504
3. CC(C)(C)c1cc2ccccc2c2c1C=CC1(CC3CCC1C3)O2 (stereo not drawn): 440
4. CC(C)(C)c1cc2ccccc2c2c1C=CC(c1ccccc1)(c1cccs1)O2 (stereo not drawn): 480
5. COc1ccc(C2(c3ccc(OC)cc3)C=Cc3c(C)cc4ccc(C)cc4c3O2)cc1: 510
6. CCC(C)c1cc2ccccc2c2c1C=CC1(O2)C2CCCC1CCC2 (stereo not drawn): 450

Each of the following entries comes with a recorded value; kindly state Maximum absorption wavelength λmax for each.
1. CC(C)c1cc2ccccc2c2c1C=CC1(O2)C2CC3CC(C2)CC1C3 (stereo not drawn)
2. CC(C)(C)c1cc2ccccc2c2c1C=CC1(O2)C2(Cl)CCCC1(Cl)CCC2 (stereo not drawn)
3. Cc1cc2ccccc2c2c1C=CC(c1ccccc1)(c1ccccc1)O2 [c, reference compound]

1: 454; 2: 444; 3: 484

Provide the reported Maximum absorption wavelength λmax of each entry below, same order.
1. CC(C)(C)c1cc2ccccc2c2c1C=CC(c1ccccc1)(c1cc3ccccc3s1)O2 (stereo not drawn)
2. COc1ccc(C2(c3cccs3)C=Cc3c(C)cc4ccccc4c3O2)cc1 (stereo not drawn)
3. COc1ccc(C2(c3ccc(OC)cc3)C=Cc3ccc4ccccc4c3O2)cc1 [a, reference compound]
4. CC(C)(C)c1cc2ccccc2c2c1C=CC1(O2)C2(Cl)CCC1(Cl)CC2 (stereo not drawn)
5. CC(C)c1cc2ccccc2c2c1C=CC(c1ccccc1)(c1ccccc1)O2
6. CC(C)c1cc2ccccc2c2c1C=CC(c1ccccc1)(c1ccc(OC(F)(F)F)cc1)O2 (stereo not drawn)

485
512
492
440
476
470

// for each molecule below, give its Maximum absorption wavelength λmax
1. COc1ccc(C2(c3ccc(OC)cc3)C=Cc3c(C(C)C)cc4ccccc4c3O2)cc1
2. COc1ccc(C2(c3ccc(OC)cc3)C=Cc3c(C)cc4cc(-c5ccccc5)ccc4c3O2)cc1
3. CC(C)(C)c1cc2ccccc2c2c1C=CC(c1ccccc1)(c1ccc(OC(F)(F)F)cc1)O2 (stereo not drawn)
4. CCOC(=O)C1=CC(c2ccccc2)(c2ccccc2)Oc2c1cc(C)c1ccccc21 [b, reference compound]
5. CCc1cc2ccccc2c2c1C=CC(c1ccc(OC)cc1)(c1ccc(OC)cc1)O2
6. COc1ccc(C2(c3ccc(OC)cc3)C=Cc3c(C)cc4c(OC)cccc4c3O2)cc1

[500, 512, 452, 488, 502, 520]

---

Give measured Change in the coloring degree ΔYI for each item. Keep answers brief.
Experiment: Aging promotion testing: sunlight 30 min / fading one hour cycles, 10 days (durability, coloring degree)
Format: physicochemical
Settings: YI(10)-YI(0), single chromene compound in polymer, 10 days aging; Table 5
Numbers only.

Worked examples follow.
1. CC(C)c1cc2ccccc2c2c1C=CC1(O2)C2CCCC1CCC2 (stereo not drawn): 2.0
2. CC(C)(C)c1cc2ccccc2c2c1C=CC(c1ccccc1)(c1ccc(OC(F)(F)F)cc1)O2 (stereo not drawn): 0.7
3. Cc1cc2ccccc2c2c1C=CC(c1ccccc1)(c1ccccc1)O2 [c, reference compound]: 2.4
4. COc1ccc(C2(c3ccc(OC)cc3)C=Cc3c(C)cc4ccccc4c3O2)cc1: 2.3
5. CC(C)c1cc2ccccc2c2c1C=CC(c1ccccc1)(c1ccc(OC(F)(F)F)cc1)O2 (stereo not drawn): 1.2

Field: next molecule
Param item = COc1ccc2c3c(c(C(C)Cc4ccccc4)cc2c1)C=CC(c1ccccc1)(c1cccn1C)O3 (stereo not drawn) ; retrieve measured Change in the coloring degree ΔYI.
2.0
